Settings: 298.15 K; 101 kPa; Liquid; Frequency=3 MHz; Linear variable-path acoustic interferometer
Readout Type: speed of sound (m/s)

[
  {
    "Input Smiles": "C1COCCO1",
    "Value Observed": 1344.7
  },
  {
    "Input Smiles": "Cc1cccc(C)c1",
    "Value Observed": 1323.6
  },
  {
    "Input Smiles": "Cc1cc(C)cc(C)c1",
    "Value Observed": 1339.8
  },
  {
    "Input Smiles": "c1ccccc1",
    "Value Observed": 1299.5
  },
  {
    "Input Smiles": "Cc1ccccc1C",
    "Value Observed": 1347.5
  },
  {
    "Input Smiles": "Cc1ccc(C)cc1",
    "Value Observed": 1307.4
  },
  {
    "Input Smiles": "Cc1ccccc1",
    "Value Observed": 1307.3
  }
]

----------
Conditions: 313.15 K; 101 kPa; Liquid; Frequency=3 MHz; Linear variable-path acoustic interferometer
Entries and their speed of sound values follow.

[
  {
    "Molecule": "Cc1ccccc1C [1,2-dimethylbenzene]",
    "speed of sound [m/s]": 1298.5
  },
  {
    "Molecule": "Cc1cccc(C)c1 [1,3-dimethylbenzene]",
    "speed of sound [m/s]": 1262.3
  },
  {
    "Molecule": "Cc1ccc(C)cc1 [1,4-dimethylbenzene]",
    "speed of sound [m/s]": 1248.3
  },
  {
    "Molecule": "Cc1ccccc1 [toluene]",
    "speed of sound [m/s]": 1242.4
  },
  {
    "Molecule": "C1COCCO1 [1,4-dioxane]",
    "speed of sound [m/s]": 1279.7
  },
  {
    "Molecule": "c1ccccc1 [benzene]",
    "speed of sound [m/s]": 1229.3
  },
  {
    "Molecule": "Cc1cc(C)cc(C)c1 [1,3,5-trimethylbenzene]",
    "speed of sound [m/s]": 1280.4
  }
]

----------
Settings: 318.15 K; 101 kPa; Liquid; Capillary tube (Ostwald / Ubbelohde) method
Readout Type: viscosity (mPa·s)

[
  {
    "Input Smiles": "Cc1cc(C)cc(C)c1",
    "Readout Type": "viscosity",
    "Value Observed": 0.5066
  },
  {
    "Input Smiles": "Cc1ccccc1C",
    "Readout Type": "viscosity",
    "Value Observed": 0.5972
  },
  {
    "Input Smiles": "Cc1cccc(C)c1",
    "Readout Type": "viscosity",
    "Value Observed": 0.468
  },
  {
    "Input Smiles": "C1COCCO1",
    "Readout Type": "viscosity",
    "Value Observed": 0.884
  },
  {
    "Input Smiles": "Cc1ccccc1",
    "Readout Type": "viscosity",
    "Value Observed": 0.4384
  },
  {
    "Input Smiles": "Cc1ccc(C)cc1",
    "Readout Type": "viscosity",
    "Value Observed": 0.4862
  },
  {
    "Input Smiles": "c1ccccc1",
    "Readout Type": "viscosity",
    "Value Observed": 0.4672
  }
]

----------
Entries and their speed of sound values follow.
Conditions: 293.15 K; 101 kPa; Liquid; Frequency=3 MHz; Linear variable-path acoustic interferometer

[
  {
    "Input Smiles": "C1COCCO1",
    "speed of sound, m/s": 1367.2
  },
  {
    "Input Smiles": "Cc1ccccc1C",
    "speed of sound, m/s": 1367.7
  },
  {
    "Input Smiles": "Cc1ccc(C)cc1",
    "speed of sound, m/s": 1328.4
  },
  {
    "Input Smiles": "Cc1cc(C)cc(C)c1",
    "speed of sound, m/s": 1360.4
  },
  {
    "Input Smiles": "Cc1cccc(C)c1",
    "speed of sound, m/s": 1346.7
  },
  {
    "Input Smiles": "Cc1ccccc1",
    "speed of sound, m/s": 1328.6
  },
  {
    "Input Smiles": "c1ccccc1",
    "speed of sound, m/s": 1324.4
  }
]

----------
Conditions: 313.15 K; 101 kPa; Liquid; Capillary tube (Ostwald / Ubbelohde) method
Outcome: 1 for viscosity of at least 0.5 mPa·s; 0 for anything lower.

[
  {
    "Input Smiles": "Cc1ccccc1",
    "Assigned Category": 0
  },
  {
    "Input Smiles": "C1COCCO1",
    "Assigned Category": 1
  },
  {
    "Input Smiles": "Cc1ccccc1C",
    "Assigned Category": 1
  },
  {
    "Input Smiles": "Cc1cc(C)cc(C)c1",
    "Assigned Category": 1
  }
]

----------
Details: 293.15 K; 101 kPa; Liquid; Capillary tube (Ostwald / Ubbelohde) method
// returns no (0) unless viscosity is strictly below 0.7 mPa·s, in which case yes (1)

[
  {
    "Compound": "c1ccccc1 [benzene]",
    "Assigned Category": "yes (1)"
  },
  {
    "Compound": "Cc1ccccc1 [toluene]",
    "Assigned Category": "yes (1)"
  },
  {
    "Compound": "Cc1ccc(C)cc1 [1,4-dimethylbenzene]",
    "Assigned Category": "yes (1)"
  },
  {
    "Compound": "Cc1cccc(C)c1 [1,3-dimethylbenzene]",
    "Assigned Category": "yes (1)"
  },
  {
    "Compound": "Cc1ccccc1C [1,2-dimethylbenzene]",
    "Assigned Category": "no (0)"
  },
  {
    "Compound": "C1COCCO1 [1,4-dioxane]",
    "Assigned Category": "no (0)"
  }
]

----------
Conditions: 313.15 K; 101 kPa; Liquid; Capillary tube (Ostwald / Ubbelohde) method

[
  {
    "Compound": "c1ccccc1 [benzene]",
    "viscosity / mPa·s": 0.498
  },
  {
    "Compound": "Cc1cccc(C)c1 [1,3-dimethylbenzene]",
    "viscosity / mPa·s": 0.4938
  },
  {
    "Compound": "Cc1ccc(C)cc1 [1,4-dimethylbenzene]",
    "viscosity / mPa·s": 0.5132
  }
]

Data credit: the NIST ThermoML archive (doi:10.1016/j.jct.2017.01.016)
